test: Repeated oral dosing (5 mg/kg every 12 h, six doses) plasma trough concentrations in koalas; type: in vivo; conditions: both sexes, koala (Phascolarctos cinereus), plasma, harmonic mean, six koalas, 72 h (12 h after the last dose), 5 mg/kg oral every 12 h, read-out: Firocoxib plasma trough concentration
Observed Property: concentration at 72 h (ng/mL)
Numbers only, in ng/mL.

// CC1(C)OC(=O)C(OCC2CC2)=C1c1ccc(S(C)(=O)=O)cc1 [firocoxib] : concentration at 72 h value = 68.8

###

assay: Repeated oral dosing (5 mg/kg every 12 h, six doses) plasma trough concentrations in koalas; format: in vivo; details: female, koala (Phascolarctos cinereus), plasma, median (range), females, 24 h, 5 mg/kg oral every 12 h, read-out: Firocoxib trough plasma concentration
Observed Property: concentration at 24 h (ng/mL)
Answers are plain numbers, in ng/mL.

The value of concentration at 24 h measured for the molecule CC1(C)OC(=O)C(OCC2CC2)=C1c1ccc(S(C)(=O)=O)cc1 turned out to be 71.3

###

assay: Repeated oral dosing (5 mg/kg every 12 h, six doses) plasma trough concentrations in koalas; format: in vivo; conditions: both sexes, koala (Phascolarctos cinereus), plasma, median, six koalas, 24 h, 5 mg/kg oral every 12 h, read-out: Firocoxib plasma trough concentration
Observed Property: concentration at 24 h (ng/mL)
Numbers only, in ng/mL.

In plain terms, CC1(C)OC(=O)C(OCC2CC2)=C1c1ccc(S(C)(=O)=O)cc1 [firocoxib] has a documented concentration at 24 h of 58.3

###

assay: Single oral dose (5 mg/kg) pharmacokinetics of firocoxib in koalas, plasma HPLC, non-compartmental analysis; details: female, koala, plasma, po, 5 mg/kg, Firocoxib plasma concentration, K5 female; 0.25 h; single oral 5 mg/kg
Observed Property: concentration at 0.25 h (ng/mL)
One number for each entry, in ng/mL.

Please fill in: concentration at 0.25 h reported for CC1(C)OC(=O)C(OCC2CC2)=C1c1ccc(S(C)(=O)=O)cc1 = 3.74

###

test: Single oral dose (5 mg/kg) pharmacokinetics of firocoxib in koalas, plasma HPLC, non-compartmental analysis; details: male, koala, plasma, po, 5 mg/kg, Firocoxib plasma concentration, K1 male; 12 h; single oral 5 mg/kg
Observed Property: concentration at 12 h (ng/mL)
One number for each entry, in ng/mL.

concentration at 12 h reading for CC1(C)OC(=O)C(OCC2CC2)=C1c1ccc(S(C)(=O)=O)cc1 [firocoxib] : 101

###

assay: Single oral dose (5 mg/kg) pharmacokinetics of firocoxib in koalas, plasma HPLC, non-compartmental analysis; conditions: female, koala, plasma, po, 5 mg/kg, Firocoxib plasma concentration, K6 female; 24 h; single oral 5 mg/kg
Observed Property: concentration at 24 h (ng/mL)
Answers are plain numbers, in ng/mL.

Measured concentration at 24 h of CC1(C)OC(=O)C(OCC2CC2)=C1c1ccc(S(C)(=O)=O)cc1 : 3.78

###

experiment: Single oral dose (5 mg/kg) pharmacokinetics of firocoxib in koalas, plasma HPLC, non-compartmental analysis; details: male, koala, plasma, po, 5 mg/kg, Firocoxib plasma concentration, K3 male; 12 h; single oral 5 mg/kg;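 note: healthy adult koalas, three per sex, anaesthetised the day before dosing for cephalic vein catheterisation, with serial blood draws and firocoxib in plasma quantified by HPLC using fluorescence detection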
Observed Property: concentration at 12 h (ng/mL)
Answers are plain numbers, in ng/mL.

GET /value?item= CC1(C)OC(=O)C(OCC2CC2)=C1c1ccc(S(C)(=O)=O)cc1 &field=concentration at 12 h returns 49.6

Values were extracted from paper PMC12483202.
